Just for reference, patent US20180250395A1 is where these values come from.

Target: T1, human CD47 on Jurkat cells (human, UniProt Q08722 19-323)
T1 construct: Endogenous CD47 of the cell lines; also called CD47-expressing Jurkat cells; CD47 on HL60 cells
Test: MSD on Jurkat cells; blocks SIRP alpha-Fc binding
Please note: EC50 exactly at 0.1 µg/mL is F. Only values below 0.1 µg/mL get T.

Binder	Assigned Category
C47B151 (antibody, V domains shown, HFA variant of C47B116; human IgG2sigma/kappa) VH: QVQLVQSGAEVKKPGSSVKVSCKASGYTFTDYNMHWVRQAPGQGLEWMGDIYPYNGGTGYNQKFKGRVTITADESTSTAYMELSSLRSEDTAVYYCARGGWHAMDSWGQGTLVTVSS VL: DIVMTQSPDSLAVSLGERATINCRSRQSIVHTNRYTYLAWYQQKPGQPPKLLIYKVSNRFSGVPDRFSGSGSGTDFTLTISSLQAEDVAVYYCFQGSHVPYTFGGGTKLEIK	F

Next item in the queue.
q: Is EC50 of C47B157 (human IgG2sigma) (antibody, V domains shown, HFA variant of C47B116; human IgG2sigma/kappa; also called IgG2 Fc-silent C47B157) VH: QVQLVQSGAEVKKPGASVKVSCKASGYTFTDYNMHWVRQAPGQGLEWMGDIYPYNGGTGYNQKFKGRVTMTRDTSTSTVYMELSSLRSEDTAVYYCARGGWHAMDSWGQGTLVTVSS VL: DIVMTQSPLSLPVTPGEPASISCRSRQSIVHTNRYTYLAWYLQKPGQSPQLLIYKVSNRFSGVPDRFSGSGSGTDFTLKISRVEAEDVGVYYCFQGSHVPYTFGGGTKLEIK strictly below 0.1 µg/mL?
a: F
